As shown below, each of these compounds has a reported TGI value.
- Tested on: MOLT-4 leukemia
- Protocol Summary: NCI tumour cell line growth inhibition, 48 h

# Compound, TGI
records = [
    ("COc1cc2c(c(OC)c1OC)CCNC2C1=C(O)COC1=O (centres undefined)", "> 100 µM"),
    ("CCOC(=O)NC(=O)c1cn(CCN2CCN(C(=O)CCCCCCCCCCNc3ncnc4c3ncn4C3OC(CO)C(O)C3O)CC2)c(=O)[nH]c1=O (centres undefined)", "> 100 µM"),
    ("OCc1cc2c([nH]c3ccccc32)c(C(O)CO)n1 (centres undefined)", "> 100 µM"),
    ("CN(C)CCNc1c2c(c(NCCN(C)C)c3c(CN(C)C)c[nH]c13)C(=O)c1ccccc1C2=O", "> 38.1 µM"),
    ("CC(=O)N(C)C(C(=O)N1CC(C)CC1C(=O)N(C)C1C(=O)NC(CC(C)C)C(=O)N2CC(C)CC2C(=O)NC(CC(C)C)C(=O)N(C)C(C(C)C)C(=O)N2CCCC2C(=O)N(C)C(CC(C)C)C(=O)NCC(=O)OC1C)C(C)C (centres undefined)", "> 100 µM"),
]

(Q) Requested field: TGI. Item: COc1cc(C(=O)/C=C/c2c(-c3cccs3)nc3sccn23)cc(OC)c1OC
(A) 4.45 µM

(Q) Requested field: TGI. Item: C1C[OH+]CCNCC[OH+]CC[OH+]CCN1.O.[Cl-].[Pt+4]
(A) > 100 µM

(Q) Requested field: TGI. Item: NC(C/C=C/P(=O)(O)O)C(=O)O (centres undefined)
(A) > 100 µM

(Q) Requested field: TGI. Item: OCN(CO)c1ccc2c(c1)Cc1cc(F)ccc1-2
(A) 75.8 µM
